Assay: Lipophilicity, logD of the compound
Assay type: physicochemical
Details: octanol/water
Observable: logD

Below are worked cases with known answers.
Measured logD of `CS(=O)(=O)Nc1ccc(-c2cncc(-c3cccc4c3CC(=O)N4)c2)cc1` : 1.5

Measured logD of `CNC(=O)Nc1ccc(-c2cncc(-c3ccc(NS(C)(=O)=O)cc3)c2)cc1` : 1.6

Measured logD of `CNS(=O)(=O)c1ccc(-c2cncc(/C=C3\SC(=N)NC3=O)c2)cc1` : 1.1

1. CC(=O)Nc1cccc(-c2cncc(/C=C3\SC(=N)NC3=O)c2)c1
2. CS(=O)(=O)Nc1ccc(-c2cncc(-c3ccc4cc[nH]c4c3)c2)cc1
Record comparison, field logD: mark the lower of 1 and 2 . Please respond with the label that marks your chosen entry.
1
(1: 1.5, 2: 2.5)

====

Assay: Lipophilicity, logD of the compound
Assay type: physicochemical
Conditions: octanol/water
Observable: logD

Below are worked cases with known answers.
Measured logD of `CS(=O)(=O)Nc1ccc(-c2cncc(-c3ccc4[nH]ccc4c3)c2)cc1` : 2.5

Measured logD of `CS(=O)(=O)Nc1ccc(-c2cc(/C=C3\SC(=N)NC3=O)cnc2N)cc1` : 0.41

Measured logD of `CS(=O)(=O)Nc1ccc(-c2cncc(-c3cccc4[nH]ccc34)c2)cc1` : 2.5

Measured logD of `CS(=O)(=O)Nc1ccc(-c2cncc(/C=C3\OC(=O)NC3=O)c2)cc1` : -1

Measured logD of `CNC(=O)Nc1ccc(-c2cncc(/C=C3\SC(=N)NC3=O)c2)cc1` : 1.4

I. CN(C)c1ccc(-c2cncc(/C=C3\SC(=N)NC3=O)c2)cc1
II. N=C1NC(=O)/C(=C/c2cncc(-c3ccc(OC(F)(F)F)cc3)c2)S1
Which item exceeds the other in logD, I or II ? Please respond with the label that marks your chosen entry.
II

====

Assay: Lipophilicity, logD of the compound
Assay type: physicochemical
Conditions: octanol/water
Observable: logD

Measured logD of `COc1ccc(-c2cncc(/C=C3\SC(=N)NC3=O)c2)c2ccccc12` : 3.1

I. CS(=O)(=O)c1ccc(-c2cncc(/C=C3\SC(=N)NC3=O)c2)cc1
II. CS(=O)(=O)Nc1ccc(-c2cncc(/C=C3\SC(=N)NC3=O)c2)cc1
III. CC(=O)Nc1cccc(-c2cncc(-c3ccc(NS(C)(=O)=O)cc3)c2)c1
Your job: order these 3 records by logD, ascending. As an answer, provide the labels arranged in the order called for.
II, I, III

====

Assay: Lipophilicity, logD of the compound
Type: physicochemical
Conditions: octanol/water
Observable: logD

Measured logD of `CS(=O)(=O)Nc1ccc(-c2cnc(N)c(/C=C3\SC(=N)NC3=O)c2)cc1` : 0.41

Measured logD of `CC(=O)Nc1cccc(Nc2cncc(-c3ccc(NS(C)(=O)=O)cc3)c2)c1` : 1.5

Measured logD of `CS(=O)(=O)Nc1ccc(-c2cncc(/C=C3\CC(=O)NC3=O)c2)cc1` : -0.14

Measured logD of `CC(=O)Nc1cccc(Oc2cncc(-c3ccc(NS(C)(=O)=O)cc3)c2)c1` : 1.5

I. CC(=O)Nc1ccc(-c2cncc(/C=C3\SC(=N)NC3=O)c2)cc1
II. CS(=O)(=O)Nc1ccc(-c2cncc(/C=C3\SC(=O)NC3=O)c2)cc1
Record comparison, field logD: mark the lower of I and II . Please respond with the label that marks your chosen entry.
II
(II: -0.05, I: 1.5)
